Ref: ChEMBL document CHEMBL1201862

Tested on: DU-145
TEST SUMMARY: NCI tumour cell line growth inhibition, 48 h
The source made the active and inactive calls. Rule as the data show it: active = GI50 up to about 1.1 µM and inactive = higher.
MEASUREMENT LABEL: GI50

>>> df
                                   molecule       endpoint_result
0  C[n+]1c2ccccc2c(CNC(CCC(N)=O)C(=O)O)c2ccccc21 (stereo not drawn)    5.52 µM (inactive)
1        O=c1oc2ccc(Cl)cc2cc1-c1cn2ccccc2n1  > 61.9 µM (inactive)
2  COc1ccc(C2C(=O)c3c(OC)cc(OC)cc3OC2c2cccnc2)cc1 (stereo not drawn)   > 100 µM (inactive)
3                    Cc1nc(Cl)c(CBr)c(Cl)n1    2.58 µM (inactive)
4  O=C1NC2c3c(I)sc(I)c3C(=O)C2O1 (stereo not drawn)      14 µM (inactive)
5  NC(CCOCCP(=O)(O)O)C(=O)O (stereo not drawn)   > 100 µM (inactive)
6              O=C1/C(=C\c2ccco2)Oc2ccccc21   > 100 µM (inactive)
7  Cc1ccc(S(=O)(=O)NC2C(=O)c3ccccc3C(=O)C2n2cnc3ccccc32)cc1 (stereo not drawn)    57.9 µM (inactive)
